System: Oryza sativa
TEST_SUMMARY: Phytotoxic activity against Oryza sativa (rice) seeds assessed as inhibition of root growth at 25 degC measured after 7 days by crop selectivity assay
Type: organism-based
EXPERIMENTAL_CONDITIONS: L., 168 h
pIC50: −log10 of the molar value.
MEASURED_QUANTITY: pIC50

INSERT INTO measurements (compound, measured_value) VALUES
  ('O=C1C(c2ccccc2)Oc2ccccc2N1O (centres undefined)', 3.22),
  ('CC1Oc2ccccc2N(O)C1=O (centres undefined)', 3.32),
  ('CCC1Oc2ccccc2N(O)C1=O (centres undefined)', 3.49),
  ('CCOC(=O)C1Oc2ccccc2N(O)C1=O (centres undefined)', 2.84),
  ('CCOC(=O)C1(C)Oc2ccccc2N(O)C1=O (centres undefined)', 2.54),
  ('CCCC1Oc2ccccc2N(O)C1=O (centres undefined)', 3.48),
  ('CCCCCCC1Oc2ccccc2N(O)C1=O (centres undefined)', 2.01),
  ('CCCCC1Oc2ccccc2N(O)C1=O (centres undefined)', 3.38),
  ('O=C1COc2ccccc2N1O', 3.83);

----------
TEST_SUMMARY: Phytotoxic activity against Oryza sativa (rice) seeds assessed as inhibition of root growth at 48 uM at 25 degC measured after 7 days by crop selectivity assay
Format: organism-based, L.
EXPERIMENTAL_CONDITIONS: read-out: GI
MEASURED_QUANTITY: inhibition at 168 h, 48 µM (%)

INSERT INTO assay_data (compound, measured_quantity, measured_value) VALUES
  ('CCC1Oc2ccccc2N(O)C1=O (stereo unspecified)', 'inhibition at 168 h, 48 µM', 20);
